System: 9-ethylguanine (9-EtG)
measurement description: Interactions with nucleobases: 9-EtG adduct formation (1H NMR)
Assay type: binding
test settings: 24 h; 1 mM, 1 mol equiv 9-EtG (ZL33A: 2 mol equiv), D2O, 310 K
endpoint label: Reaction with 9-EtG, extent of adduct formation (%)
Response body: numeric value in %, unit text excluded.

Solved cases below.
Q. Please indicate Reaction with 9-EtG, extent of adduct formation recorded for Cc1c(C)c(-c2ccccc2)[c-](C)c1C.F[P-](F)(F)(F)(F)F.[Cl-].[Ir+3].c1cnc2c(c1)ccc1cccnc12 (centres unmarked) [ZL33, [(η^5-C5Me4C6H5)Ir(phen)Cl]PF6]
A. 42.2

Q. Please indicate Reaction with 9-EtG, extent of adduct formation recorded for Cc1c(C)c(-c2ccc(-c3ccccc3)cc2)[c-](C)c1C.O=C([O-])c1ccccn1.[Cl-].[Ir+3] (centres unmarked)
A. 100

Q. Please indicate Reaction with 9-EtG, extent of adduct formation recorded for Cc1c(C)c(C)[c-](C)c1C.O=C([O-])c1ccccn1.[Cl-].[Ir+3] [ZL03, [(η^5-C5Me5)Ir(η^2—C5H4N-2-CO2)Cl]]
A. 100

Q. Please indicate Reaction with 9-EtG, extent of adduct formation recorded for Cc1c(C)c(-c2ccccc2)[c-](C)c1C.O=C([O-])c1ccccn1.[Cl-].[Ir+3] (centres unmarked) [ZL38, [(η^5-C5Me4C6H5)Ir(η^2-C5H4N-2-CO2)Cl]]
A. 100

Please find the next molecule below.
Q. Please indicate Reaction with 9-EtG, extent of adduct formation recorded for Cc1c(C)c(C)[c-](C)c1C.F[P-](F)(F)(F)(F)F.NCCN.[Cl-].[Ir+3] [ZL01, [(η^5-C5Me5)IrCl(H2NCH2CH2NH2—N,N)]PF6]
A. 100
